experiment: Four-week GLP repeat-dose oral toxicity study in female monkeys; conditions: female, monkey, in vivo, po
Structures can show the parent of a compound that is named as a salt.
ATTRIBUTE MEASURED: MTD at 4 weeks (mg/kg)
Numeric only. Scale: mg/kg

Exercise: I would be grateful if you could share the reported MTD at 4 weeks for C[C@@H]1Cc2c([nH]c3ccccc23)[C@@H](c2c(F)cc(NC3CN(CCCF)C3)cc2F)N1CC(F)(F)CO [Compound B, tartrate] .
Key: 60

* * *

test: clinical; details: human, in vivo, po
Where a name gives a salt, the structure may show the parent alone.
ATTRIBUTE MEASURED: half-life

Exercise: Record request: half-life value, item C[C@@H]1Cc2c([nH]c3ccccc23)[C@@H](c2c(F)cc(NC3CN(CCCF)C3)cc2F)N1CC(F)(F)CO [Compound B, tartrate]
Key: ~40 h

* * *

assay: Approximate solubility of Compound B Form B material in 20 solvents at RT; type: physicochemical; conditions: water, thermodynamic from solid, H2O
Where a name gives a salt, the structure may show the parent alone.
ATTRIBUTE MEASURED: solubility

Exercise: Recorded solubility of C[C@@H]1Cc2c([nH]c3ccccc23)[C@@H](c2c(F)cc(NC3CN(CCCF)C3)cc2F)N1CC(F)(F)CO [Compound B, tartrate] , please.
Key: < 1900 µg/mL

* * *

assay: Approximate solubility of freebase Compound A in 16 solvents at RT; assay type: physicochemical; conditions: organic solvent or mixture, Toluene
ATTRIBUTE MEASURED: solubility

Exercise: Report solubility for "C[C@@H]1Cc2c([nH]c3ccccc23)[C@@H](c2c(F)cc(NC3CN(CCCF)C3)cc2F)N1CC(F)(F)CO" please.
Key: > 60 mg/mL

* * *

test: Equilibrium solubility (24 hrs) of Form B and Form D in aw 0.2/0.4 EtOH:H2O systems; assay type: physicochemical; settings: EtOH:H2O (92.7:7.3, v/v), aw 0.4, 25 °C, organic solvent or mixture, thermodynamic from solid, aw 0.4, EtOH:H2O (92.7:7.3, v/v), RT, concentration of freebase in filtrate
ATTRIBUTE MEASURED: solubility at 24 hrs (mg/mL)
Numbers only here, please. The scale is mg/mL.

Exercise: So what's the measured solubility at 24 hrs for this one? C[C@@H]1Cc2c([nH]c3ccccc23)[C@@H](c2c(F)cc(NC3CN(CCCF)C3)cc2F)N1CC(F)(F)CO [Compound B Form B]
Key: 27.5

* * *

assay: Four-week GLP repeat-dose oral toxicity study in female rats; details: female, rat, plasma, po, 100 mg/kg
Structures can show the parent of a compound that is named as a salt.
ATTRIBUTE MEASURED: AUC(0-t) (µg·h/mL)
Report as a plain number; the unit µg·h/mL is understood.

Exercise: Which AUC(0-t) value belongs to C[C@@H]1Cc2c([nH]c3ccccc23)[C@@H](c2c(F)cc(NC3CN(CCCF)C3)cc2F)N1CC(F)(F)CO [Compound B, tartrate] ?
Key: 143

* * *

assay: Approximate solubility of Compound B Form B material in 20 solvents at RT; type: physicochemical; settings: organic solvent or mixture, thermodynamic from solid, DMSO
Where a name gives a salt, the structure may show the parent alone.
ATTRIBUTE MEASURED: solubility

Exercise: What value of measured solubility is listed for C[C@@H]1Cc2c([nH]c3ccccc23)[C@@H](c2c(F)cc(NC3CN(CCCF)C3)cc2F)N1CC(F)(F)CO [Compound B, tartrate] ?
Key: > 38 mg/mL

* * *

Assay: Approximate solubility of freebase Compound A in 16 solvents at RT
Assay type: physicochemical
Details: organic solvent or mixture, MIBK
Description: Polymorph Screening. The solubility of freebase Compound A was estimated in 16 solvents at RT. (Table 8). Polymorph screening experiments were performed using different solution crystallization or solid phase transition methods.
ATTRIBUTE MEASURED: solubility

Exercise: What does the record list as solubility for C[C@@H]1Cc2c([nH]c3ccccc23)[C@@H](c2c(F)cc(NC3CN(CCCF)C3)cc2F)N1CC(F)(F)CO [Compound A] ?
Key: > 60 mg/mL

* * *

assay: Oral bioavailability in rats and dogs; details: rat, dog, in vivo
Where a name gives a salt, the structure may show the parent alone.
ATTRIBUTE MEASURED: bioavailability

Exercise: Which bioavailability is reported for this compound? C[C@@H]1Cc2c([nH]c3ccccc23)[C@@H](c2c(F)cc(NC3CN(CCCF)C3)cc2F)N1CC(F)(F)CO [Compound B, tartrate]
Key: 41 to 55%

* * *

target: CYP3A4 (Homo sapiens); settings: read-out: CYP3A4 inhibition IC50; direct inhibition, midazolam 1′-hydroxylation, human liver microsomes
Sequence (P08684 whole entry): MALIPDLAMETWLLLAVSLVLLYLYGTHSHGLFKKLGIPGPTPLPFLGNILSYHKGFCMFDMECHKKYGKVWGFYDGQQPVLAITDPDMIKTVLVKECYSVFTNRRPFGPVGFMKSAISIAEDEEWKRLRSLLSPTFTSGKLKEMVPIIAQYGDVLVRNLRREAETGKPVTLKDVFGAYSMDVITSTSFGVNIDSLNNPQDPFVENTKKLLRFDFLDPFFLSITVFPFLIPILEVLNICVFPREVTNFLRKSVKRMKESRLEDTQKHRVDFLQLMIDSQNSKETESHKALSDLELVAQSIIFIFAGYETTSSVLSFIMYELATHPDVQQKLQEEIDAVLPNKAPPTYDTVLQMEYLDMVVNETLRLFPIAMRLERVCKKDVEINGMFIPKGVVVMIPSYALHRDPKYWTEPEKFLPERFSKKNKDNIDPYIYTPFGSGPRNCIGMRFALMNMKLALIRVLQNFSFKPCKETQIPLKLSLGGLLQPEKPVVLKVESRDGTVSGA
Structures can show the parent of a compound that is named as a salt.
ATTRIBUTE MEASURED: pIC50
Note on pIC50: it is the negative log10 of concentration, concentration in mol/L.

Exercise: Which pIC50 reading was recorded for the molecule C[C@@H]1Cc2c([nH]c3ccccc23)[C@@H](c2c(F)cc(NC3CN(CCCF)C3)cc2F)N1CC(F)(F)CO [Compound B, tartrate] ?
Key: 5.19

* * *

Assay: Approximate solubility of freebase Compound A in 16 solvents at RT
Format: physicochemical
Details: water, H2O
Protocol: Polymorph Screening. The solubility of freebase Compound A was estimated in 16 solvents at RT. (Table 8). Polymorph screening experiments were performed using different solution crystallization or solid phase transition methods.
ATTRIBUTE MEASURED: solubility

Exercise: Item under review: "C[C@@H]1Cc2c([nH]c3ccccc23)[C@@H](c2c(F)cc(NC3CN(CCCF)C3)cc2F)N1CC(F)(F)CO" . Reported solubility?
Key: < 1900 µg/mL

* * *

Assay: Approximate solubility of Compound B Form B material in 20 solvents at RT
Type: physicochemical
Details: organic solvent or mixture, thermodynamic from solid, CPME
Protocol: Polymorph Screening of L-Tartrate. The solubility of Compound B Form B material was estimated in 20 solvents at RT. (Table 22). Approximately 2 mg solids were added into a 3-mL glass vial. Solvents in Table 6-7 were then added into the vials stepwise until the solids were dissolved or a total volume of 1 mL was reached. Results of Table 22 were used to guide the solvent selection in polymorph screening. […]
Counter-ions that a name gives are not always drawn.
ATTRIBUTE MEASURED: solubility

Exercise: Query (compound): C[C@@H]1Cc2c([nH]c3ccccc23)[C@@H](c2c(F)cc(NC3CN(CCCF)C3)cc2F)N1CC(F)(F)CO [Compound B, tartrate] ; field requested: solubility
Key: < 2100 µg/mL

* * *

assay: Approximate solubility of Compound B Form B material in 20 solvents at RT; assay type: physicochemical; conditions: organic solvent or mixture, thermodynamic from solid, Acetone
Structures can show the parent of a compound that is named as a salt.
ATTRIBUTE MEASURED: solubility

Exercise: May I ask what solubility has been recorded for C[C@@H]1Cc2c([nH]c3ccccc23)[C@@H](c2c(F)cc(NC3CN(CCCF)C3)cc2F)N1CC(F)(F)CO [Compound B, tartrate] ?
Key: 2100 to 7000 µg/mL

* * *

Test: Approximate solubility of Compound B Form B material in 20 solvents at RT
Assay type: physicochemical
Conditions: organic solvent or mixture, thermodynamic from solid, n-Heptane
Procedure: Polymorph Screening of L-Tartrate. The solubility of Compound B Form B material was estimated in 20 solvents at RT. (Table 22). Approximately 2 mg solids were added into a 3-mL glass vial. Solvents in Table 6-7 were then added into the vials stepwise until the solids were dissolved or a total volume of 1 mL was reached. Results of Table 22 were used to guide the solvent selection in polymorph screening. […]
Structures can show the parent of a compound that is named as a salt.
ATTRIBUTE MEASURED: solubility

Exercise: // lookup solubility for C[C@@H]1Cc2c([nH]c3ccccc23)[C@@H](c2c(F)cc(NC3CN(CCCF)C3)cc2F)N1CC(F)(F)CO [Compound B, tartrate]
Key: < 2000 µg/mL

* * *

experiment: Approximate solubility of Compound B Form B material in 20 solvents at RT; assay type: physicochemical; conditions: organic solvent or mixture, thermodynamic from solid, MIBK
Counter-ions that a name gives are not always drawn.
ATTRIBUTE MEASURED: solubility

Exercise: What value of measured solubility is listed for C[C@@H]1Cc2c([nH]c3ccccc23)[C@@H](c2c(F)cc(NC3CN(CCCF)C3)cc2F)N1CC(F)(F)CO [Compound B, tartrate] ?
Key: < 1.9 mg/mL

* * *

test: Approximate solubility of freebase Compound A in 16 solvents at RT; type: physicochemical; settings: organic solvent or mixture, CPME
ATTRIBUTE MEASURED: solubility

Exercise: What measured solubility goes with "C[C@@H]1Cc2c([nH]c3ccccc23)[C@@H](c2c(F)cc(NC3CN(CCCF)C3)cc2F)N1CC(F)(F)CO" ?
Key: > 44 mg/mL

* * *

experiment: Approximate solubility of Compound B Form B material in 20 solvents at RT; type: physicochemical; conditions: organic solvent or mixture, thermodynamic from solid, IPAc
Where a name gives a salt, the structure may show the parent alone.
ATTRIBUTE MEASURED: solubility

Exercise: Entry C[C@@H]1Cc2c([nH]c3ccccc23)[C@@H](c2c(F)cc(NC3CN(CCCF)C3)cc2F)N1CC(F)(F)CO [Compound B, tartrate] : reported solubility = ?
Key: < 1900 µg/mL

Data provenance is patent US11780834B2.
